# protocolDetails: Liver weight after three weeks of diet treatment
# Assay type: in vivo, mouse (female Balb/c)
# experimentalParameters: 0.25% of diet, control 0.057 ± 0.006, DHEA p < 0.05, clofibrate p < 0.002 vs control
# Method: Female Balb/c mice were housed in polycarbonate cages (6/mice/cage) in animal quarters maintained at 24°±1° C. with 12 hours of light and 12 hours of dark each day. The mice were placed on a diet containing either DHEA, 8354, A, B clofibrate or with no addition. […] Total protein was measured by the method of Lowry, et al. (O. H. Lowry, N. J. Rosebrough, A. L. Farr, R. J. Randall, J. Biol. Chem., 193, 265 (1951)).
// values below are reported LIVER WEIGHT
reportedProperty: LIVER WEIGHT (gm/gm body weight)

* C[C@]12CCCCC1=CC[C@@H]1[C@@H]2CC[C@]2(C)C(=O)[C@H](F)C[C@@H]12 | 0.066
* CCOC(=O)C(C)(C)Oc1ccc(Cl)cc1 [Clofibrate, clofibrate, reference compound] | 0.084
* C[C@]12CCCC[C@@H]1CC[C@@H]1[C@@H]2CC[C@]2(C)C(=O)[C@H](O)C[C@@H]12 | 0.058
* C[C@]12CCCC[C@@H]1CC[C@@H]1[C@@H]2CC[C@]2(C)C(=O)[C@H](F)C[C@@H]12 | 0.061
* C[C@]12CC[C@H](O)CC1=CC[C@@H]1[C@@H]2CC[C@]2(C)C(=O)CC[C@@H]12 [DHEA, Dehydroepiandrosterone] | 0.074

====

// values below are reported inhibition at 0.1 µM
# system: UniProt:F1MMK2
# protocolDetails: G6PDH inhibition test
# Type: biochemical
# experimentalParameters: 10^-7 M; individual determinations; read-out: Percent Inhibition of G6PDH
reportedProperty: inhibition at 0.1 µM

- C[C@]12CCCC[C@@H]1CC[C@@H]1[C@@H]2CC[C@]2(C)C(=O)[C@H](O)C[C@@H]12: 17%
- C[C@]12CCCC[C@@H]1CC[C@@H]1[C@@H]2CC[C@]2(C)C(=O)[C@H](F)C[C@@H]12: 36%
- C[C@]12CCCCC1=CC[C@@H]1[C@@H]2CC[C@]2(C)C(=O)[C@](C)(F)C[C@@H]12: 28%
- C[C@@H]1C[C@H]2[C@@H]3CC=C4CCCC[C@]4(C)[C@H]3CC[C@]2(C)C1=O: 20%

====

# system: purified bovine adrenal G6PDH (Bos taurus, UniProt F1MMK2)
# Sequence (F1MMK2 31-70): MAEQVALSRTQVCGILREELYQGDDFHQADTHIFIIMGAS
# Sequence (F1MMK2 101-575): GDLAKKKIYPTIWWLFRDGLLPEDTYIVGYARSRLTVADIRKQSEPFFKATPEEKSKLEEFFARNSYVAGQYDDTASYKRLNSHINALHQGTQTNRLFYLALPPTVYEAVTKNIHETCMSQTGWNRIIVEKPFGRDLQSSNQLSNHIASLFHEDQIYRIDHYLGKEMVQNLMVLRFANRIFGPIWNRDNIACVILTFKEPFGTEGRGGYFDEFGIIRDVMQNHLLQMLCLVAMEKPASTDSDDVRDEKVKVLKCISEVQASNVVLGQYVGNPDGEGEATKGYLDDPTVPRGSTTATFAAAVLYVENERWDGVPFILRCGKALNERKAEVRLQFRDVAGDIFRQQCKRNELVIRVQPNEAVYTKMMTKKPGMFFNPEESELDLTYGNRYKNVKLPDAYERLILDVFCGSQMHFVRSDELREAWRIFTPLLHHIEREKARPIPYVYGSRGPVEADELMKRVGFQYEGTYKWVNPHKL
# protocolDetails: G6PDH inhibition test
# Type: biochemical
# experimentalParameters: 10^-6 M; individual determinations; read-out: Percent Inhibition of G6PDH
reportedProperty: inhibition at 1 µM (%)

• C[C@]12CC[C@H](O)CC1=CC[C@@H]1[C@@H]2CC[C@]2(C)C(=O)CC[C@@H]12 [DHEA, Dehydroepiandrosterone] = 17
• C[C@H]1C[C@H]2[C@@H]3CC=C4CCCC[C@]4(C)[C@H]3CC[C@]2(C)C1=O = 13
• C[C@]12CCCC[C@@H]1CC[C@@H]1[C@@H]2CC[C@]2(C)C(=O)[C@H](O)C[C@@H]12 = 72
• C[C@]12CCCCC1=CC[C@@H]1[C@@H]2CC[C@]2(C)C(=O)[C@H](F)C[C@@H]12 = 75
• C[C@]12CCCC[C@@H]1CC[C@@H]1[C@@H]2CC[C@]2(C)C(=O)[C@H](F)C[C@@H]12 = 82
• C[C@]12CCCCC1=CC[C@@H]1[C@@H]2CC[C@]2(C)C(=O)[C@H](O)C[C@@H]12 = 30
• C[C@@H]1C[C@H]2[C@@H]3CC=C4CCCC[C@]4(C)[C@H]3CC[C@]2(C)C1=O = 33
• C[C@]12CCCCC1=CC[C@@H]1[C@@H]2CC[C@]2(C)C(=O)[C@](C)(F)C[C@@H]12 = 66
